Ref: patent US20240317847A1

Molecular target: T1, human IL-11 (human, UniProt P20809 22-199)
T1 construct: bought from Invigate; also called hIL-11; hIL11
T1 sequence: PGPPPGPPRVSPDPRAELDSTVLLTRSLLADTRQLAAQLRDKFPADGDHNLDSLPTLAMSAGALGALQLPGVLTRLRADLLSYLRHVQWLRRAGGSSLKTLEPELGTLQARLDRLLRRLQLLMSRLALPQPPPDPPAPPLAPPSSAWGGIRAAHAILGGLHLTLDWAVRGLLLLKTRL
Test: SPR, antibody captured, IL-11 as analyte
Overview of recorded pKd for various binders
Entry type: numeric. Quantity: pKd, the -log10 of concentration in molar units.

query: Tell us which pKd value is on record for TPP-26309 (antibody, V domains shown, constant regions not restated) VH: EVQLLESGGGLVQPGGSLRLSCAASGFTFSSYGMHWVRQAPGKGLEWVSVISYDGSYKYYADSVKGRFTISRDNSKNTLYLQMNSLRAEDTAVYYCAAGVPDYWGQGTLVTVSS VL: QSVLTQPPSASGTPGQRVTISCTGSSSNIGAGYDVHWYQQLPGTAPKLLIYSNNERPSGVPDRFSGSKSGTSASLAISGLRSEDEADYYCAAWDFSLNGPVFGGGTKLTVL
result: 8.09

query: Please list pKd recorded for the binder TPP-26296 (antibody, V domains shown, constant regions not restated) VH: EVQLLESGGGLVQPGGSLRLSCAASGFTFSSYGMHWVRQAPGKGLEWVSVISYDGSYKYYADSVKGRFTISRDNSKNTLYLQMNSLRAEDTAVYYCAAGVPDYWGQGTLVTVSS VL: QSVLTQPPSASGTPGQRVTISCTGSSSNIGAGYDVHWYQQLPGTAPKLLIYSNNERPSGVPDRFSGSKSGTSASLAISGLRSEDEADYYCAAWDNSLNGPVFGGGTKLTVL
result: 7.85

query: Answer with reported pKd of TPP-26331 (antibody, V domains shown, constant regions not restated) VH: EVQLLESGGGLVQPGGSLRLSCAASGFTFSSYGGHWVRQAPGKGLEWVSVISYDGSYKYYADSVKGRFTISRDNSKNTLYLQMNSLRAEDTAVYYCAAGVPDYWGQGTLVTVSS VL: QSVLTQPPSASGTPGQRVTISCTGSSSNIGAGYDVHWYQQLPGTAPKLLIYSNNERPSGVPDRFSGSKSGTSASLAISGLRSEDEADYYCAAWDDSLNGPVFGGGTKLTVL
result: 7.82

query: Item TPP-26300 (antibody, V domains shown, constant regions not restated) VH: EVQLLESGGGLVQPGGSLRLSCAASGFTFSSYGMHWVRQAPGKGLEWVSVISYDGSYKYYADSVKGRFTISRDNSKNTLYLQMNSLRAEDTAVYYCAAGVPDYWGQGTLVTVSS VL: QSVLTQPPSASGTPGQRVTISCTGSSSNIGAGYDVHWYQQLPGTAPKLLIYSNNERPSGVPDRFSGSKSGTSASLAISGLRSEDEADYYCAAWDSSLNGPVFGGGTKLTVL : provide pKd
result: 8.04

query: # return recorded pKd for entry TPP-26324 (antibody, V domains shown, constant regions not restated) VH: EVQLLESGGGLVQPGGSLRLSCAASGFTFSSYGMHWVRQAPGKGLEWVSVISYDGSYKYYRDSVKGRFTISRDNSKNTLYLQMNSLRAEDTAVYYCAAGVPDYWGQGTLVTVSS VL: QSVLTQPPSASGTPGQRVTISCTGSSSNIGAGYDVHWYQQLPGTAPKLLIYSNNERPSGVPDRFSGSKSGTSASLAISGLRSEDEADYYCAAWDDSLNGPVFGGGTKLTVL
result: 7.89

query: Give the reported value of pKd for this record: TPP-26328 (antibody, V domains shown, constant regions not restated) VH: EVQLLESGGGLVQPGGSLRLSCAASGFTFSSYGMHWVRQAPGKGLEWVSVISYDGSYKYYADSVKGRFTISRDNSKNTLYLQMNSLRAEDTAVYYCAATVPDYWGQGTLVTVSS VL: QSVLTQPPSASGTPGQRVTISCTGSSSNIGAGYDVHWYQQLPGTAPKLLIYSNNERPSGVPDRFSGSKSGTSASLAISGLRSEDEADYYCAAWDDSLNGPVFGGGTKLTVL
result: 7.92
